- Conditions: in isopropanol, 317.15 K
Quantity: solubility (mole fraction)
Give the value as a plain number.

Determine from records and report solubility (mole fraction) for `C[C@@H]1CC[C@@]2(OC1)O[C@H]1C[C@H]3[C@@H]4CC=C5C[C@@H](O)CC[C@]5(C)[C@H]4CC[C@]3(C)[C@H]1[C@@H]2C`
0.00192

###

- Conditions: in ethyl acetate, 313.65 K
Quantity: solubility (mole fraction)

Query solubility (mole fraction) for `C[C@@H]1CC[C@@]2(OC1)O[C@H]1C[C@H]3[C@@H]4CC=C5C[C@@H](O)CC[C@]5(C)[C@H]4CC[C@]3(C)[C@H]1[C@@H]2C`
0.00423

###

- Conditions: in isopropanol, 324.65 K
Quantity: solubility (mole fraction)
Could you respond with only the numeric value?

Tell us which solubility (mole fraction) value is on record for `C[C@@H]1CC[C@@]2(OC1)O[C@H]1C[C@H]3[C@@H]4CC=C5C[C@@H](O)CC[C@]5(C)[C@H]4CC[C@]3(C)[C@H]1[C@@H]2C`
0.0023

###

- Conditions: in ethanol, 322.65 K
Quantity: solubility (mole fraction)
# respond with the number and nothing more

Check the records and state solubility (mole fraction) for `C[C@@H]1CC[C@@]2(OC1)O[C@H]1C[C@H]3[C@@H]4CC=C5C[C@@H](O)CC[C@]5(C)[C@H]4CC[C@]3(C)[C@H]1[C@@H]2C`
0.00215

###

- Conditions: in methanol, 329.15 K
Quantity: solubility (mole fraction)
Reply with the value as a number alone.

For the molecule `C[C@@H]1CC[C@@]2(OC1)O[C@H]1C[C@H]3[C@@H]4CC=C5C[C@@H](O)CC[C@]5(C)[C@H]4CC[C@]3(C)[C@H]1[C@@H]2C` , give its reported solubility (mole fraction).
0.00091

###

- Conditions: in methanol, 327.15 K
Quantity: solubility (mole fraction)
Please give only the number in your answer, with no unit.

Give a short answer stating reported solubility (mole fraction) for `C[C@@H]1CC[C@@]2(OC1)O[C@H]1C[C@H]3[C@@H]4CC=C5C[C@@H](O)CC[C@]5(C)[C@H]4CC[C@]3(C)[C@H]1[C@@H]2C` .
0.000795

###

- Conditions: in ethanol, 315.65 K
Quantity: solubility (mole fraction)
Keep it simple and answer with nothing but the number.

Supply reported solubility (mole fraction) belonging to this compound: `C[C@@H]1CC[C@@]2(OC1)O[C@H]1C[C@H]3[C@@H]4CC=C5C[C@@H](O)CC[C@]5(C)[C@H]4CC[C@]3(C)[C@H]1[C@@H]2C`
0.00184

###

- Conditions: in ethyl acetate, 303.65 K
Quantity: solubility (mole fraction)
Lab note: jot the number down without any unit.

Report measured solubility (mole fraction); entry is `C[C@@H]1CC[C@@]2(OC1)O[C@H]1C[C@H]3[C@@H]4CC=C5C[C@@H](O)CC[C@]5(C)[C@H]4CC[C@]3(C)[C@H]1[C@@H]2C`
0.00294

###

- Conditions: in ethyl acetate, 308.65 K
Quantity: solubility (mole fraction)
Note: the reply should be a number with no unit written.

Provide measured solubility (mole fraction) value, entry: `C[C@@H]1CC[C@@]2(OC1)O[C@H]1C[C@H]3[C@@H]4CC=C5C[C@@H](O)CC[C@]5(C)[C@H]4CC[C@]3(C)[C@H]1[C@@H]2C`
0.0036

###

- Conditions: in methanol, 300.15 K
Quantity: solubility (mole fraction)
Note: the reply should be a number with no unit written.

Given `C[C@@H]1CC[C@@]2(OC1)O[C@H]1C[C@H]3[C@@H]4CC=C5C[C@@H](O)CC[C@]5(C)[C@H]4CC[C@]3(C)[C@H]1[C@@H]2C` , respond with its solubility (mole fraction).
0.000325
